# measurementTarget: T1, human DLL3 (UniProt Q9NYJ7 27-492)
# T1 chain: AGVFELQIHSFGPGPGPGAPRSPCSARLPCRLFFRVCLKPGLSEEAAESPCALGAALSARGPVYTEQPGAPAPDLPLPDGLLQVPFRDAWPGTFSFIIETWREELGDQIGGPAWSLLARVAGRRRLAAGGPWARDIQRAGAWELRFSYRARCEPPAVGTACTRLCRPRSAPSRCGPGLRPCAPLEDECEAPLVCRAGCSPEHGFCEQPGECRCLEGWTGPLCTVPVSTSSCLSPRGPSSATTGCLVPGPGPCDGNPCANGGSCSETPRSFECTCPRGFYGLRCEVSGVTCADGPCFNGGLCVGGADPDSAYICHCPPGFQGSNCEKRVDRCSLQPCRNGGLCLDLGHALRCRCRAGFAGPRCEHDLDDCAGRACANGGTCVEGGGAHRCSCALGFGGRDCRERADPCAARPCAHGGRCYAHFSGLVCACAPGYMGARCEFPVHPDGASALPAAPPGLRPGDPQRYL
# test: SPR (Biacore)
propertyName: pKd
pKd (log units): -log10 of the concentration in mol/L.

For orientation, consider the following solved cases.
SC16.65 (antibody, V domains shown, murine mAb; V regions only) VH: QVTLKESGPGILQPSQTLSLTCSFSGFSLSTSGMGVGWIRQPSGKGLEWLALIWWDDVKRYNPALKSRLTISKDASSSQVFLKIASVDTADTATYYCARIASYDYDVVYAMDYWGQGTSVSVSS VL: QIVLTQSPALMSASPGEKVTMTCSVTSSVSYMYWYQQKPRSSPKPWIYLTSNLASGVPARFSGSGSGTSYSLTISSVEAEDAATYYCQQWRNNPFTFGSGTKVEIK    9.05
SC16.34 (antibody, V domains shown, murine mAb; V regions only) VH: QIQLVQSGPELKRPGETVKISCKASGYTFTNYGMNWVKQAPGKGLKWMGWINTYTGDPTYADDFKGRFAFSLETSASTAYLQINNLKNEDTATYFCARIGGNSPSDYWGQGTSLTVSS VL: SIVMTQTPKFLLVSAGDRVTITCKASQSVSNDVAWYQQKPGQSPKLLIYYASNRYSGVPDRFTGSGYGTDFTFTISTVQAEDLAVYFCQQDYSSPWTFGGGTKLEIK    9.70
SC16.56 (antibody, V domains shown, murine mAb; V regions only) VH: QIQLVQSGPELKKPGETVKISCKASGYTFTNYGMNWVKQAPGKGLKWMAWINTYTGEPTYADDFKGRFAFSLETSASTASLQIINLKNEDTATYFCARIGDSSPSDYWGQGTTLTVSS VL: SIVMTQTPKFLLVSAGDRVTITCKASQSVSNDVVWYQQKPGQSPKLLIYYASNRYTGVPDRFAGSGYGTDFSFTISTVQAEDLAVYFCQQDYTSPWTFGGGTKLEIR    9.00

So, SC16.15 (antibody, V domains shown, murine mAb; V regions only) VH: QVQLQQSGAELAKPGASVKMSCKASGYTFTRYWIHWIKQRPGQGLEWIGYINPTTVYTEFNQNFKDKATLTADKSSTTASMQLSSLTSEDSAVYYCARGGSNFFDYWGQGTTLTVSS VL: DIQMTQSPASLAASVGETVAITCRASENIYYNLAWYQQKQGKSPQLLIYTANSLEDGVPSRFSGSGSGTQYSLKINSMQPEDSATYFCKQAYDVPPTFGGGTKLEIK ? Its pKd was 9.30
